Each recorded value in this set is attributed to BindingDB's records for doi:10.3109/14756360903049059.

- tgt: 3-oxoacyl-[acyl-carrier-protein] synthase 3 (Mycobacterium tuberculosis (strain ATCC 25618 / H37Rv))
- Sequence (P9WNG3 whole entry): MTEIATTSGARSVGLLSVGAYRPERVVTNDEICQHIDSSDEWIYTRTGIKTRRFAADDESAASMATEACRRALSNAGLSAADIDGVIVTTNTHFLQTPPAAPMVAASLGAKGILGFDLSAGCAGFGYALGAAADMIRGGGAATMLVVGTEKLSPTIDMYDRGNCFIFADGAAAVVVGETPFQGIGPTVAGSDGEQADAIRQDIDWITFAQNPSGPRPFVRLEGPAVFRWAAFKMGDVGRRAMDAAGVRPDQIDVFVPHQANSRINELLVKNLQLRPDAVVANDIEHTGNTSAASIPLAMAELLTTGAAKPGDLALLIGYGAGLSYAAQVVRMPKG
- experiment.summary: 3D-QSAR
pIC50: −log10 of the molar value.
Classify as follows. Reported pIC50 greater than or equal to 4: true. Reported pIC50 below: false.

Here are 3 molecules together with their reported answers.
molecule: CC(=O)c1ccc(C#CC2(C)SC(=O)C(C)=C2O)cc1 (stereo not given) [mtFabH inhibitor, 3]
class.assignment: true

molecule: CC(=O)c1ccc(C#CC2(C)SC(=O)C(C)=C2O)cc1O (stereo not given) [mtFabH inhibitor, 4]
class.assignment: true

molecule: CC1=C(O)C(C)(Cc2ccccc2)SC1=O (stereo not given) [mtFabH inhibitor, 9]
class.assignment: false

Please check the record COC(=O)c1ccc(CC#CC2(C)SC(=O)C(C)=C2O)cc1 (stereo not given) [mtFabH inhibitor, 5] and state if its pIC50 is at or above 4.
true

* * *

- tgt: 3-oxoacyl-[acyl-carrier-protein] synthase 3 (Mycobacterium tuberculosis (strain ATCC 25618 / H37Rv))
- experiment.summary: 3D-QSAR
Kindly apply the following: true if IC50 is less than 80 µM, false in every other case.

In the record for CC1=C(O)C(C)(C#Cc2ccccc2C#N)SC1=O (centres undefined) [mtFabH inhibitor, 8] , is IC50 less than 80 µM?
true

Try this compound next: CC1=C(O)C(C)(C#CCc2ccc([N+](=O)[O-])cc2)SC1=O (centres undefined) [mtFabH inhibitor, 6]
true

* * *

- tgt: 3-oxoacyl-[acyl-carrier-protein] synthase 3 (Mycobacterium tuberculosis (strain ATCC 25618 / H37Rv))
- experiment.summary: 3D-QSAR
Exercise: for every item that follows, state its recorded pIC50.
Answers are plain numbers, as −log10 of the molar value.

Known results for compounds:
compound: COc1ccc(C2(C)SC(=O)C(C)=C2O)cc1 (configuration not stated) [mtFabH inhibitor, 13]
numeric.value: 3.30
//
compound: CC1=C(O)C(C)(C#CCc2ccc(C#N)cc2)SC1=O (configuration not stated) [mtFabH inhibitor, 7]
numeric.value: 5.15
//
compound: C#CC1(C)SC(=O)C(C)=C1O (configuration not stated) [mtFabH inhibitor, 2]
numeric.value: 4.00

Look at each compound and report its pIC50.
1. CC1=C(O)C(C)(Cc2cccc(C(=O)c3ccccc3)c2)SC1=O (configuration not stated) [mtFabH inhibitor, 40]
2. COc1ccc(CC2(C)SC(=O)C(C)=C2O)cc1 (configuration not stated) [mtFabH inhibitor, 12]
3. CCCCCCCCCCCCCC1(C)SC(=O)C(C)=C1O (configuration not stated) [mtFabH inhibitor, 26]
4. CC(=O)Nc1cccc(-c2ccc(CC3(C)SC(=O)C(C)=C3O)cc2)c1 (configuration not stated) [mtFabH inhibitor, 25]

1: 3.55; 2: 3.81; 3: 4.10; 4: 3.92
